IC50 for UniProtKB P22607, merged from several publications.

CCN1CCN(c2ccc(Nc3ncc(CCc4cc(C(=O)NC5CC5)cc(OC)c4F)cn3)cc2)CC1    14 nM
CC(C)(O)c1cncc(-c2cnc3ccn4c(C(N)=O)c(-c5c(Cl)cccc5Cl)nc4c3c2)c1    1 to 10 nM

Exercise: Can you share its IC50? I mean this compound: CC(c1ccccc1)C1C(=O)N(C)CCN1c1ccc2[nH]nc(-c3cnn(C)c3)c2n1 (stereo not shown)
Key: < 10 nM

Exercise: How about `COc1cc(OC)c(F)c(N2Cc3cnc(N)c(-c4ccncc4)c3N(C)C2=O)c1F` ?
Key: < 100 nM

###

Literature survey of pIC50 (system: Fibroblast growth factor receptor 3 (Homo sapiens)).
pIC50: −log10 of the molar value.

The cases that follow already have their pIC50 on record.
CCOc1cc(NC(=O)N2CCCc3ccc(C=O)nc32)ncc1C#N    < 5.00
CCN1CCN(c2ccc(Nc3ncc(CCc4cc(OC)cc(C(=O)NOCCO)c4)cn3)cc2)CC1    6.89
N#Cc1cnc(NC(=O)N2CCCc3ccc(C=O)nc32)cn1    < 5.00
OCCn1cc(-c2cnc3ccn4c(C(F)F)c(-c5c(Cl)cccc5Cl)nc4c3c2)cn1    > 9.00
CCNC(=O)c1cc(COc2cnc(Nc3ccc(N4C[C@@H](C)N[C@@H](C)C4)cc3)nc2)c(F)c(OC)c1    7.55

Exercise: Dear colleague, I am looking for the recorded pIC50 of the following compound: CCC(O)Cn1cc(-c2cnc3ccn4c(C(N)=O)c(-c5c(Cl)cccc5Cl)nc4c3c2)cn1 (stereo not shown)
Key: 9.00 to 10.00

Exercise: Then `CC[C@]1(O)[C@H](N)C[C@H](c2ccncc2NC(=O)c2nc(-c3ccccc3)cnc2N)O[C@@H]1C` ?
Key: 6.08

Exercise: Please answer likewise for CC(C(=O)N1CCC(O)CC1)c1ccc(-c2cnn3c(-c4cccc(NC(=O)NCC(F)(F)F)c4)cnc3c2)cc1 (stereo not shown)
Key: > 8.00

Exercise: Query CC(C(=O)N1CC(C#N)C1)n1cc(-c2cnn3c(-c4cccc(NC(=O)NCC(F)(F)F)c4)cnc3c2)cn1 (stereo not shown) next
Key: > 8.00

Exercise: Then what about the compound `CNC(=O)c1cc(CCc2cnc(Nc3ccc(-n4cccn4)cc3)nc2)c(F)c(OC)c1` ?
Key: 7.08

Exercise: Next entry: `CNC(=O)c1cc(CCc2cnc(Nc3cnn(CCO)c3)nc2)c(F)c(OC)c1`
Key: 7.85

Exercise: Another: `CNC(=O)c1cc(C)c(F)c(-c2cnn3cc(-c4cnn(C)c4)c(N[C@H]4CCOC4)nc23)c1`
Key: > 8.00

###

Endpoint summary: IC50, system: Fibroblast growth factor receptor 3 (Homo sapiens, UniProt P22607), multiple sources combined.

Here are 10 compounds together with their reported answers.
O=C(NCC(F)(F)F)Nc1cccc(-n2cnc3cc(-c4cccc(C(=O)NCCN5CCOCC5)c4)ccc32)c1    < 0.01 µM
CNC(=O)c1cncc(-c2cnc3cc(-c4ccc(N5CCN(C)CC5)cc4)c(O[C@H]4CCOC4)nn23)c1    < 0.01 µM
Cn1ccnc1CNC(=O)c1ccc(-c2ccc3c(c2)ncn3-c2cccc(NC(=O)NCC(F)(F)F)c2)cc1    < 0.01 µM
CC(C)(C(N)=O)n1cc(-c2cnc3ccn4c(C(F)F)c(-c5c(Cl)cccc5Cl)nc4c3c2)cn1    < 0.001 µM
CC(C(=O)N1CCCC1)c1ccc(-c2ccc3c(c2)ncn3-c2cccc(NC(=O)NCC(F)(F)F)c2)cc1 (stereo not drawn)    < 0.01 µM
CNC(=O)c1cc(-c2cnn3cc(-c4cnn(C)c4)c(N[C@H]4CCOC4)nc23)c(F)c(C(F)F)c1    < 0.01 µM
COc1cc(OC)c(F)c(-c2cc3[nH]nc(-c4ccc5c(c4)CN(CCC4CCCN4C)C5=O)c3cn2)c1F (stereo not drawn)    < 0.1 µM
CN1CCOC(CNc2cc(NC(=O)N3CCCc4cc(C(F)F)c(C=O)nc43)ncc2C#N)C1 (racemic)    > 10 µM
CNC(=O)c1cc(CCc2cnc(Nc3cnn(CCCN4CCCC4)c3)nc2)c(F)c(OC)c1    0.008 µM
C=CC(=O)NCc1cc2c(cn1)CN(c1c(F)c(OC)cc(OC)c1F)C(=O)N2C1CCC1    > 0.2 µM

Exercise: Request body: readout IC50, system Fibroblast growth factor receptor 3 (Homo sapiens, UniProt P22607), query `COc1cc(OC)c(F)c(N2Cc3cnc(NC4CCOCC4)cc3C3(CC3)C2=O)c1F` . Return the value.
Key: < 0.1 µM

Exercise: Another compound to look at: `CNC(=O)c1cc(COc2cnc(Nc3cnn(C)c3)nc2)c(F)c(OC)c1`
Key: 0.01 µM

Exercise: Queued: `CNC(=O)c1cc(CCc2cnc(Nc3cnn(CCS(C)(=O)=O)c3)nc2)c(Cl)c(OC)c1`
Key: 0.016 µM

Exercise: COc1cc(OC)c(Cl)c(-c2ncc3c(-c4ccc5c(c4)CC(C(=O)N(C)C)O5)n[nH]c3n2)c1Cl (stereo not drawn) ?
Key: < 0.1 µM

Exercise: Ok, now `O=C(NCC(F)(F)F)Nc1cccc(-n2cnc3cc(-c4cnn(C5CCN(C(=O)CC6CC6)CC5)c4)ccc32)c1`
Key: < 0.01 µM

Exercise: Please give the result for `CNC(=O)c1cc(CCc2cnc(Nc3cnn(C4COC4)c3)nc2)c(F)c(OC)c1` too.
Key: 0.013 µM

Exercise: Now give it for `CNC(=O)c1cc(C#N)cc(-c2cnn3cc(-c4ccncc4)c(O[C@H]4CCOC4)nc23)c1` too.
Key: < 0.01 µM

Exercise: Follow-up item: `CNC(=O)c1ccc(C#N)c(-c2cnc3cc(-c4cnn(C)c4)c(OC)nn23)c1`
Key: ≥ 0.4 µM

Exercise: And for `CNC(=O)c1cc(CCc2cnc(Nc3ccc4nncn4c3)nc2)c(F)c(OC)c1` ?
Key: 0.044 µM

Exercise: Now consider CNC(=O)c1cc(C)c(F)c(-c2cnn3cc(-c4cnn(C)c4)c(OC4CCOC4)nc23)c1 (racemic) .
Key: < 0.01 µM

Exercise: Similarly, `Cn1ccc(S(=O)(=O)N2CCC(n3cc(-c4cnn5c(-c6cccc(NC(=O)NCC(F)(F)F)c6)cnc5c4)cn3)CC2)n1` ?
Key: < 0.01 µM

Exercise: What do we get for N#CCC1(n2cc(-c3cnn4c(-c5cccc(NC(=O)NCC(F)(F)F)c5)cnc4c3)cn2)CN(C(=O)C2CCOC2)C1 (stereo not drawn) ?
Key: < 0.01 µM

Exercise: And what about the compound `CCN1CCC(Cn2cc(Nc3ncc(CCc4cc(C(=O)NC)cc(OC)c4Cl)cn3)cn2)CC1` ?
Key: 0.004 µM

Exercise: Same thing, different compound: `CCN(CC)CCn1cc(Nc2ncc(OCc3cc(C(=O)NC)cc(OC)c3F)cn2)cn1`
Key: 0.013 µM

Exercise: And then `C=CC(=O)NCc1cc2c(cn1)CN(c1c(F)c(OC)cc(OC)c1F)C(=O)N2Cc1cccnc1` , what is it?
Key: > 0.2 µM

Exercise: Now the compound `CNC(=O)c1cc(CCc2cnc(Nc3cnn(C)c3)nc2)c(Cl)c(OC)c1`
Key: 0.014 µM

Exercise: Item: `COc1cc(OC)c(F)c(N2Cc3cnc(N)c(Cc4ccccc4)c3N(C)C2=O)c1F`
Key: < 0.1 µM

###

Below are IC50 values for Fibroblast growth factor receptor 3 (Homo sapiens, UniProt P22607) collected from several publications.

Exercise: Data request, read-out IC50, for `COc1cc(C)cc2cc(-c3c(CNC(C)=O)cn4ncnc(N)c34)sc12`
Key: 0.2 nM

Exercise: Please answer likewise for `Nc1ncc(-c2ccccc2)nc1C(=O)Nc1cnccc1[C@@H]1C[C@H](N)[C@]2(O)CCC[C@@H]2O1`
Key: > 10000 nM

Exercise: What would you report for `N#Cc1cnc(NC(=O)N2CCCc3ccc(C=O)nc32)nc1` ?
Key: > 10000 nM

Exercise: One more compound: `CNC(=O)c1cc(F)c(F)c(-c2cnc3cc(-c4cnn(C5CCN(C)CC5)c4)c(O[C@H]4CCOC4)nn23)c1`
Key: < 10 nM

Exercise: Another compound: `C=CC(=O)N1CC(C(=O)N2CCN(c3ccc(-c4cnc5ccc(Nc6cc(OC)cc(OC)c6)cc5n4)cn3)CC2)C1`
Key: 272 nM

Exercise: Continue with `OCc1c(-c2c(Cl)cccc2Cl)nc2c3cc(-c4cnn(Cc5ccncn5)c4)cnc3ccn12`
Key: 1 to 5 nM

Exercise: Same again, this time with `CC(C)Nc1cc(NC(=O)N2CCCc3cc(CN4CCN(C)CC4=O)c(C=O)nc32)ncc1C#N`
Key: > 10000 nM

Exercise: What do you get for `COc1cc(OC)c(Cl)c(-c2cc3[nH]nc(-c4cnn(CC(=O)N5CCN(C)CC5)c4)c3cn2)c1Cl` ?
Key: < 100 nM

Exercise: And the next one, `N#CCC1(n2cc(-c3cnn4c(-c5cccc(NC(=O)NCC(F)(F)F)c5)cnc4c3)cn2)CN(C(=O)CC2CC2)C1` ?
Key: < 10 nM

Exercise: Then what about the compound `COc1cc(C)cc2cc(-c3c(CN4CC[C@@H](N(C)C)C4)cn4ncnc(N)c34)sc12` ?
Key: 0.6 nM

Exercise: # iterate: `COc1cc(OC)c(F)c(N2Cc3cnc(N)c(-c4cnn(C)c4)c3N(C)C2=O)c1F`
Key: < 100 nM

Exercise: Another compound: `N#CCn1cc(-c2cnc3ccn4c(C(F)F)c(-c5c(Cl)cccc5Cl)nc4c3c2)cn1`
Key: < 1 nM
